- System: 485368-065-R3-J5-PDC spheroids with HUVEC/MSC, viability
- assay-procedure: Anticancer human tumor 485368-065-R3-J5-PDC patient-derived pancreatic carcinoma cell line growth inhibition [RAS]
- assay-conditions: second compound 0.003 µM; first compound 0.1 µM; hits give low values
hey, just use label 1 if measured viability, T/C is less than 20%, otherwise label 0

-- ask Strictly below 20% in viability, T/C? CC(C)NCC(C(=O)N1CCN(c2ncnc3c2C(C)CC3O)CC1)c1ccc(Cl)cc1 (centres undefined) + CCn1c(-c2cccnc2C(C)OC)c2c3cc(ccc31)N1CCOC(CC(NC(=O)C(C(C)C)N(C)C(=O)C3(F)CCN(C(=O)C#CC(C)(C)N(C)C)CC3)C(=O)N3CCCC(N3)C(=O)OCC(C)(C)C2)C1
-- reply label 0

-- ask Strictly below 20% in viability, T/C? CC(=O)OC12COC1CC(O)C1(C)C(=O)C(O)C3=C(C)C(OC(=O)C(O)C(NC(=O)OC(C)(C)C)c4ccccc4)CC(O)(C(OC(=O)c4ccccc4)C21)C3(C)C (centres undefined) + CCn1c(-c2cc(N3CCN(C)CC3)cnc2C(C)OC)c2c3cc(ccc31)-c1csc(n1)CC(NC(=O)C1CC1C)C(=O)N1CCCC(N1)C(=O)OCC(C)(C)C2
-- reply label 1

-- ask Strictly below 20% in viability, T/C? CC(Nc1ccc2c(c1)OCCn1cc(N3C(=O)OCC3C(F)F)nc1-2)C(N)=O (centres undefined) + CCn1c(-c2cc(N3CCN(C)CC3)cnc2C(C)OC)c2c3cc(ccc31)-c1csc(n1)CC(NC(=O)C1CC1C)C(=O)N1CCCC(N1)C(=O)OCC(C)(C)C2
-- reply label 1

-- ask Strictly below 20% in viability, T/C? CC(C)NCC(C(=O)N1CCN(c2ncnc3c2C(C)CC3O)CC1)c1ccc(Cl)cc1 (centres undefined) + CCn1c(-c2cc(N3CCN(C)CC3)cnc2C(C)OC)c2c3cc(ccc31)-c1csc(n1)CC(NC(=O)C1CC1C)C(=O)N1CCCC(N1)C(=O)OCC(C)(C)C2
-- reply label 0

-- ask Strictly below 20% in viability, T/C? C[C@@H](NC(=O)c1ncnc(N)c1Cl)c1ncc(C(=O)Nc2cc(C(F)(F)F)c(Cl)cn2)s1 + CCn1c(-c2cccnc2C(C)OC)c2c3cc(ccc31)N1CCOC(CC(NC(=O)C(C(C)C)N(C)C(=O)C3(F)CCN(C(=O)C#CC(C)(C)N(C)C)CC3)C(=O)N3CCCC(N3)C(=O)OCC(C)(C)C2)C1
-- reply label 0

-- ask Strictly below 20% in viability, T/C? Nc1ccn(C2OC(CO)C(O)C2(F)F)c(=O)n1 (centres undefined) + CCn1c(-c2cccnc2C(C)OC)c2c3cc(ccc31)N1CCOC(CC(NC(=O)C(C(C)C)N(C)C(=O)C3(F)CCN(C(=O)C#CC(C)(C)N(C)C)CC3)C(=O)N3CCCC(N3)C(=O)OCC(C)(C)C2)C1
-- reply label 1

-- ask Strictly below 20% in viability, T/C? C[C@@H](NC(=O)c1ncnc(N)c1Cl)c1ncc(C(=O)Nc2cc(C(F)(F)F)c(Cl)cn2)s1 + CCn1c(-c2cc(N3CCN(C)CC3)cnc2C(C)OC)c2c3cc(ccc31)-c1csc(n1)CC(NC(=O)C1CC1C)C(=O)N1CCCC(N1)C(=O)OCC(C)(C)C2
-- reply label 0

-- ask Strictly below 20% in viability, T/C? Cc1nc(N2CCC3(CC2)COC(C)C3N)c(CO)nc1Sc1ccnc(N)c1Cl (centres undefined) + CCn1c(-c2cc(N3CCN(C)CC3)cnc2C(C)OC)c2c3cc(ccc31)-c1csc(n1)CC(NC(=O)C1CC1C)C(=O)N1CCCC(N1)C(=O)OCC(C)(C)C2
-- reply label 1

-- ask Strictly below 20% in viability, T/C? CCN1CCN(Cc2ccc(Nc3ncc(F)c(-c4cc(F)c5nc(C)n(C(C)C)c5c4)n3)nc2)CC1 + CCn1c(-c2cc(N3CCN(C)CC3)cnc2C(C)OC)c2c3cc(ccc31)-c1csc(n1)CC(NC(=O)C1CC1C)C(=O)N1CCCC(N1)C(=O)OCC(C)(C)C2
-- reply label 1

* * *

- Tested on: 485368-065-R3-J5-PDC spheroids with HUVEC/MSC, viability
- assay-procedure: Anticancer human tumor 485368-065-R3-J5-PDC cell line growth inhibition [RAS];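 also: spheroids exposed to agents for seven days before readout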
- assay-conditions: second compound 0.00316 µM; first compound 3.16 µM; hits give low values
Task for the reader: assign each of the following compounds its reported viability, T/C.
Only the number, expressed in %, is required.

-- ask Record request: viability, T/C value, item CC(=O)OC12COC1CC(O)C1(C)C(=O)C(O)C3=C(C)C(OC(=O)C(O)C(NC(=O)OC(C)(C)C)c4ccccc4)CC(O)(C(OC(=O)c4ccccc4)C21)C3(C)C (stereo not drawn) + C=CC(=O)N1CCN(c2nc(OCC3CCCN3C)nc3c(F)c(-c4nc(N)cc(C)c4C(F)(F)F)c(Cl)cc23)C(C)C1
-- reply 13.9

-- ask Record request: viability, T/C value, item CC1(O)CCCC1n1c(=O)c(C(F)F)cc2cnc(NC3CCN(S(C)(=O)=O)CC3)nc21 (stereo not drawn) + C=CC(=O)N1CCN(c2nc(OCC3CCCN3C)nc3c(F)c(-c4nc(N)cc(C)c4C(F)(F)F)c(Cl)cc23)C(C)C1
-- reply 40.6

-- ask Record request: viability, T/C value, item CC(C)NCC(C(=O)N1CCN(c2ncnc3c2C(C)CC3O)CC1)c1ccc(Cl)cc1 (stereo not drawn) + C=CC(=O)N1CCN(c2nc(OCC3CCCN3C)nc3c(F)c(-c4nc(N)cc(C)c4C(F)(F)F)c(Cl)cc23)C(C)C1
-- reply 70.8

* * *

Task for the reader: assign each of the following compounds its reported viability, T/C.
- Test system: 485368-065-R3-J5-PDC spheroids with HUVEC/MSC, viability
- assay-procedure: Anticancer human tumor 485368-065-R3-J5-PDC cell line growth inhibition [RAS];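 also: spheroids exposed to agents for seven days before readout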
- assay-conditions: second compound 0.0949 µM; first compound 0.000949 µM; hits give low values
Only the number, expressed in %, is required.

-- ask Record request: viability, T/C value, item CCc1c2c(nc3ccc(O)cc13)-c1cc3c(c(=O)n1C2)COC(=O)[C@]3(O)CC + CCn1c(-c2cccnc2C(C)OC)c2c3cc(ccc31)N1CCOC(CC(NC(=O)C(C(C)C)N(C)C(=O)C3(F)CCN(C(=O)C#CC(C)(C)N(C)C)CC3)C(=O)N3CCCC(N3)C(=O)OCC(C)(C)C2)C1
-- reply 88.1

-- ask Record request: viability, T/C value, item CC1(C)CCC(Nc2ncc(C(F)(F)F)c(-c3c[nH]c4c(P(C)(C)=O)c(C#N)ccc34)n2)CN1 (centres undefined) + CCn1c(-c2cc(N3CCN(C)CC3)cnc2C(C)OC)c2c3cc(ccc31)-c1csc(n1)CC(NC(=O)C1CC1C)C(=O)N1CCCC(N1)C(=O)OCC(C)(C)C2
-- reply 13.2

-- ask Record request: viability, T/C value, item CCc1c2c(nc3ccc(O)cc13)-c1cc3c(c(=O)n1C2)COC(=O)[C@]3(O)CC + CCn1c(-c2cc(N3CCN(C)CC3)cnc2C(C)OC)c2c3cc(ccc31)-c1csc(n1)CC(NC(=O)C1CC1C)C(=O)N1CCCC(N1)C(=O)OCC(C)(C)C2
-- reply 8.87

-- ask Record request: viability, T/C value, item CC1(C)CCC(Nc2ncc(C(F)(F)F)c(-c3c[nH]c4c(P(C)(C)=O)c(C#N)ccc34)n2)CN1 (centres undefined) + CCn1c(-c2cccnc2C(C)OC)c2c3cc(ccc31)N1CCOC(CC(NC(=O)C(C(C)C)N(C)C(=O)C3(F)CCN(C(=O)C#CC(C)(C)N(C)C)CC3)C(=O)N3CCCC(N3)C(=O)OCC(C)(C)C2)C1
-- reply 104

* * *

Task for the reader: assign each of the following compounds its reported viability, T/C.
- System: 485368-065-R3-J5-PDC spheroids with HUVEC/MSC, viability
- assay-procedure: Anticancer human tumor 485368-065-R3-J5-PDC cell line growth inhibition [RAS];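 also: spheroids exposed to agents for seven days before readout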
- assay-conditions: second compound 0.003 µM; first compound 0.000949 µM; hits give low values
Only the number, expressed in %, is required.

-- ask Record request: viability, T/C value, item CC1(C)CCC(Nc2ncc(C(F)(F)F)c(-c3c[nH]c4c(P(C)(C)=O)c(C#N)ccc34)n2)CN1 (centres undefined) + CCn1c(-c2cccnc2C(C)OC)c2c3cc(ccc31)N1CCOC(CC(NC(=O)C(C(C)C)N(C)C(=O)C3(F)CCN(C(=O)C#CC(C)(C)N(C)C)CC3)C(=O)N3CCCC(N3)C(=O)OCC(C)(C)C2)C1
-- reply 109

-- ask Record request: viability, T/C value, item CCc1c2c(nc3ccc(O)cc13)-c1cc3c(c(=O)n1C2)COC(=O)[C@]3(O)CC + CCn1c(-c2cc(N3CCN(C)CC3)cnc2C(C)OC)c2c3cc(ccc31)-c1csc(n1)CC(NC(=O)C1CC1C)C(=O)N1CCCC(N1)C(=O)OCC(C)(C)C2
-- reply 17.6

-- ask Record request: viability, T/C value, item CCc1c2c(nc3ccc(O)cc13)-c1cc3c(c(=O)n1C2)COC(=O)[C@]3(O)CC + CCn1c(-c2cccnc2C(C)OC)c2c3cc(ccc31)N1CCOC(CC(NC(=O)C(C(C)C)N(C)C(=O)C3(F)CCN(C(=O)C#CC(C)(C)N(C)C)CC3)C(=O)N3CCCC(N3)C(=O)OCC(C)(C)C2)C1
-- reply 84.1

-- ask Record request: viability, T/C value, item CC1(C)CCC(Nc2ncc(C(F)(F)F)c(-c3c[nH]c4c(P(C)(C)=O)c(C#N)ccc34)n2)CN1 (centres undefined) + CCn1c(-c2cc(N3CCN(C)CC3)cnc2C(C)OC)c2c3cc(ccc31)-c1csc(n1)CC(NC(=O)C1CC1C)C(=O)N1CCCC(N1)C(=O)OCC(C)(C)C2
-- reply 24.4
